- Test system: SK-MEL-28
- Assay Name: NCI tumour cell line growth inhibition, 48 h
The source made the active and inactive calls. No stated cut-off is given here; in the data, active = GI50 up to about 1.1 µM and inactive = higher.
// reported GI50 for each item listed

Here's what some known entries look like.
1) Cc1cccc(C)c1N1C(=O)C(=O)C(c2nc3ccccc3s2)/C(=N/c2cccc3c(=O)[nH][nH]c(=O)c23)C1=O (centres undefined); > 100 µM (inactive)
2) CC(=O)Oc1ccc2c3c1O[C@H]1[C@H](O)CC[C@@]4(O)[C@@H](C2)N(C)CC[C@]314; > 100 µM (inactive)
3) Nc1cc(F)ccc1CC(=O)O; > 100 µM (inactive)

Ask | Identify measured GI50 associated with COC(=O)C(Cc1ccccc1)OC(=O)C(N)CC(=O)O (centres undefined)
Reply | > 100 µM (inactive)

Ask | Identify measured GI50 associated with COc1c(OC(C)=O)cc2c(OC(C)=O)c1CC(C)CC(OC)C(O)C(C)/C=C(\C)C(OC(N)=O)C(OC)/C=C\C=C(/C)C(=O)N2 (centres undefined)
Reply | > 100 µM (inactive)

Ask | Identify measured GI50 associated with `COc1ccc(-c2cc(-c3ccc(Nc4ccnc5cc(C(F)(F)F)ccc45)cc3)[nH]c(=O)c2C#N)c2ccccc12`
Reply | > 59.7 µM (inactive)

Ask | Identify measured GI50 associated with `CCOC(=O)c1sc2nc(SC)nc3c2c1N=CN3c1ccccc1Cl`
Reply | > 100 µM (inactive)

Ask | Identify measured GI50 associated with `COCN(C)c1nc(N(C)C)nc(N(C)C)n1`
Reply | > 100 µM (inactive)

Ask | Identify measured GI50 associated with `CC(=O)O[C@H]1CC[C@@]2(C)C(=CC[C@@H]3[C@@H]2CC[C@]2(C)c4nc(Cl)ccc4C[C@@H]32)C1`
Reply | 45.6 µM (inactive)

Ask | Identify measured GI50 associated with `COC(=O)[C@@](NC(=O)OCc1ccccc1)([C@H](C)O)C(F)(F)F`
Reply | > 100 µM (inactive)

Ask | Identify measured GI50 associated with COc1cc(C(=O)N2CCc3c([nH]c4c([N+](=O)[O-])c(OC)ccc34)C2C)cc(OC)c1OC (centres undefined)
Reply | > 100 µM (inactive)

Ask | Identify measured GI50 associated with CC1(C)OCC(C2OC(=O)C(OCc3ccccc3)=C2OCc2ccccc2)O1 (centres undefined)
Reply | 65.6 µM (inactive)

Ask | Identify measured GI50 associated with `CC1=C(C(=O)Nc2ccc(C)cc2)C(c2cccc([N+](=O)[O-])c2)C(C(=O)Nc2ccc(C)cc2)=C(C)N1`
Reply | 28.8 µM (inactive)

Ask | Identify measured GI50 associated with `O=S(=O)(O)c1cc(/N=N/c2cc(S(=O)(=O)O)c3cccnc3c2O)ccc1/C=C/c1ccc(/N=N/c2cc(S(=O)(=O)O)c3cccnc3c2O)cc1S(=O)(=O)O`
Reply | > 100 µM (inactive)

###

- Test system: Malme-3M
- Assay Name: NCI tumour cell line growth inhibition, 48 h
Activity calls are given as the source filed them. Cut-off read from the data, not from the text of the source: active = GI50 up to about 1.1 µM and inactive = higher.
Pick from 1 = active, -1 = inactive when you respond.

1. COC(=O)c1c(C)cccc1C1CN=NC12Cc1cc(C)c(C)cc1C2=O (stereo unspecified); -1
2. Nc1ccc(C(=O)O)cc1; -1
3. CC(=O)/C=c1\[nH]/c(=C\C=C\c2ccccc2)c(=O)n1/C=C1\C(=O)Oc2ccccc2C1=O; -1
4. Brc1cccc(/C=C/CN2CCN(CCOC(c3ccccc3)c3ccccc3)CC2)c1; -1
5. O=S1(=O)c2ccccc2NC(=S)CC1c1ccccc1 (stereo unspecified); -1

We next turn to a different compound, shown below.
Ask | Which outcome was assigned to O=C1C(C(O)(C(F)(F)Cl)C(F)(F)Cl)CCC1C(O)(C(F)(F)Cl)C(F)(F)Cl (stereo unspecified) in this test?
Reply | -1

###

- Test system: TK-10
- Assay Name: NCI tumour cell line growth inhibition, 48 h
Activity calls are given as the source filed them. Cut-off read from the data, not from the text of the source: active = GI50 up to about 1.1 µM and inactive = higher.
Pick from 1 = active, -1 = inactive when you respond.

1. CC(=O)O[C@H]1CC(C)(C)C(=C=C/C(C)=C/C=C/C=C/C=C(C)/C=C2C=C(/C=C/[C@@]34O[C@]3(C)C[C@@H](O)CC4(C)C)C(=O)O/2)[C@](C)(O)C1; 1
2. CC(C)C1=Cc2ccc3c(c2C(=O)C1=O)CCCC3; -1
3. CCc1nnc(S)n1/N=C\c1ccc(-c2ccccc2[N+](=O)[O-])o1; -1

Ask | Which outcome was assigned to `CC1(C)O[C@@H](CP(c2ccccc2)c2ccccc2)[C@H](CP(c2ccccc2)c2ccccc2)O1` in this test?
Reply | -1

Ask | Which outcome was assigned to `COCCOCc1nc(C#N)c(N)o1` in this test?
Reply | -1

Ask | Which outcome was assigned to `O=C(O)/C(Cc1ccc([N+](=O)[O-])cc1)=N\O` in this test?
Reply | -1

Ask | Which outcome was assigned to `Cn1c2ccccc2c2c3c(=O)[nH][nH]c(=O)c3c3c4ccccc4n(C)c3c21` in this test?
Reply | -1

Ask | Which outcome was assigned to `Cc1nc2c(ccc3ncccc32)[nH]1` in this test?
Reply | -1

Ask | Which outcome was assigned to `Cn1nc(-c2ccccc2)c2c(/C=C/c3ccccc3)onc2c1=O` in this test?
Reply | -1

###

System: HCT-15 | Read-out: GI50

Here's what some known entries look like.
1. NCC(=O)Nc1ccc(S(=O)(=O)O)c2cc(S(=O)(=O)O)cc(S(=O)(=O)O)c12; > 100 µM
2. Cn1c(=O)nc2n(-c3cc(C(F)(F)F)cc(C(F)(F)F)c3)c3ccccc3nc-2c1=O; > 100 µM

Ask | Give reported GI50 for C[C@]12CCC3[C@@H](C[C@H]4OC(=O)[C@@]35CCC(=O)C=C45)C1CCC2=O (stereo partly drawn) (HCT-15)
Reply | > 100 µM

###

- Test system: K562
- Assay Name: NCI tumour cell line growth inhibition, 48 h
The source made the active and inactive calls. Cut-off read from the data, not from the text of the source: active = GI50 up to about 1.1 µM and inactive = higher.
Pick from active, inactive when you respond.

The examples below pair each entry with its known result.
1. CN(C)CCn1c(=O)c2ccc(NCCCN(C)CCCNc3ccc4c(=O)n(CCN(C)C)c(=O)n5c6ccc(O)cc6c(=O)c3c45)c3c(=O)c4cc(O)ccc4n(c1=O)c23; active
2. CC(C)Cn1cnc2c(SCc3ccccn3)nc(N)nc21; inactive
3. COc1cc(C(=O)N2CCc3c([nH]c4c([N+](=O)[O-])c(OC)ccc34)C2C)cc(OC)c1OC (centres undefined); inactive

Ask | Which outcome was assigned to Cc1ccc2c(c1C)CC1(Cc3ccc(C)c(C)c3C1=O)C2=O (centres undefined) in this test?
Reply | inactive

###

- Tested on: MDA-MB-435
- Assay Name: NCI tumour cell line growth inhibition, 48 h
Calls of active or inactive are those of the source. No stated cut-off is given here; in the data, active = GI50 up to about 1.1 µM and inactive = higher.
Measurement Name: GI50

Here's what some known entries look like.
1) Cc1cn(C(=O)NC23CC4CC(CC(C4)C2)C3)c(=O)[nH]c1=O; 61.4 µM (inactive)
2) OCC1OC(n2cnc3c(/C=C(/O)c4ccccc4)ncnc32)C(O)C1O (stereo not drawn); 2.25 µM (inactive)

Next:
Ask | Identify measured GI50 associated with `CC1(C)O[C@@H](CP(c2ccccc2)c2ccccc2)[C@H](CP(c2ccccc2)c2ccccc2)O1`
Reply | 6.03 µM (inactive)

###

- Tested on: MOLT-4
- Assay Name: NCI tumour cell line growth inhibition, 48 h
Activity calls are given as the source filed them. No stated cut-off is given here; in the data, active = GI50 up to about 1.1 µM and inactive = higher.
// reported GI50 for each item listed

1. Cc1cnc2c(c1)C(=O)C1=C(C2=O)C2OC(=O)CC2OC1(C)C (centres undefined); 0.0776 µM (active)
2. COC12CCC(=O)C=C1c1ccccc1N2C(C)=O (centres undefined); > 100 µM (inactive)
3. c1ccc2c(c1)C1CCCCCC21N1CCOCC1 (centres undefined); 32.6 µM (inactive)

Ask | Give reported GI50 for `CN(C)CCn1c(=O)c2ccc(NCCCN(C)CCCNc3ccc4c(=O)n(CCN(C)C)c(=O)n5c6ccc(O)cc6c(=O)c3c45)c3c(=O)c4cc(O)ccc4n(c1=O)c23` (MOLT-4)
Reply | < 0.01 µM (active)

###

- Test system: UACC-62
- Assay Name: NCI tumour cell line growth inhibition, 48 h
Activity calls are given as the source filed them. Rule as the data show it: active = GI50 up to about 1.1 µM and inactive = higher.
Measurement Name: GI50

1. CSCCCNC(=O)c1csc(-c2csc(CCN)n2)n1; > 100 µM (inactive)
2. CCc1nnc(S)n1/N=C\c1ccc(-c2ccccc2[N+](=O)[O-])o1; 37.6 µM (inactive)
3. NC(=O)C(=O)CC(=O)c1ccccc1NC1=CC(=O)C(=O)c2ccccc21; 40.6 µM (inactive)
4. COc1c2c(cc3nc4ccccc4nc13)CCC(C(C)(C)O)C2 (stereo unspecified); > 100 µM (inactive)
5. COc1ccc(NC(=O)CC(=O)NN2C(=O)/C(=C/c3ccc(N(CCC#N)CCC#N)cc3C)N=C2/C=C\c2ccccc2)cc1; > 100 µM (inactive)

Next:
Ask | Identify measured GI50 associated with `Cn1c(=O)c2nc(CCCCc3nc4ccccc4[nH]3)[nH]c2n(C)c1=O`
Reply | > 100 µM (inactive)
